Exercise: state measured growth for each of the compounds provided.
Tested on: ACHN renal
Test: NCI-60 one-dose screen, 48 h (100 = growth as untreated, 0 = no growth, -100 = all killed)
Conditions: 10 µM unless noted
This is part of a sample that, as a whole, favours compounds with a hit. Of some 83,000 tested, about 20% had one in any assay.
// return numeric value only (unit: %, not printed)

**Query** Read the entry `Cn1ccnc1C(=O)/C=C/c1ccc(CNC(=O)c2ccc(F)cc2)cc1` and write its reported growth.
**Result** 43.4

**Query** Read the entry `O=C(CN1CCN(c2cc(=O)n(-c3ccccc3)c3ccccc23)CC1)Nc1cccc(C(F)(F)F)c1` and write its reported growth.
**Result** 58.5

**Query** Read the entry O=C1CC(=O)N2CSCN(C(c3ccccc3)c3nc4ncncc4[nH]3)C2=N1 (stereo unspecified) and write its reported growth.
**Result** 99.8

**Query** Read the entry C#CCNC1CCC(c2csc(C#C)n2)=C1C (stereo unspecified) and write its reported growth.
**Result** -88.2

**Query** Read the entry `COc1cc(Cn2cc3c(c2)-c2onc(CN4CCCC4)c2CC3)cc(OC)c1OC` and write its reported growth.
**Result** 97.5

**Query** Read the entry `COc1cc(-c2nc(-c3ccccc3)[nH]c2-c2ccnc(NCCCNS(=O)(=O)c3cccc(F)c3)n2)ccc1Cl` and write its reported growth.
**Result** 32.8

**Query** Read the entry `NC(=O)c1cccc(C#CCNC[C@H]2C[C@@H](n3ccc4c(Cl)ncnc43)[C@H](O)[C@@H]2O)c1` and write its reported growth.
**Result** 106

**Query** Read the entry `CN1CCN(c2ccc(/C=N/Nc3nc4ccccc4c(=O)n3-c3ccccc3)cc2)CC1` and write its reported growth.
**Result** 108

**Query** Read the entry `CN1CCN(Cc2ccc(NC(=O)c3cncc(C#Cc4cnc5ccc(NCCCO)nn45)c3)cc2C(F)(F)F)CC1` and write its reported growth.
**Result** 3.14

**Query** Read the entry `CN1c2ccccc2Sc2cc(C=C(C#N)C#N)ccc21` and write its reported growth.
**Result** 101

**Query** Read the entry `N/C(=N\C(N)=N\c1nc2ccccc2s1)c1ccncc1Cl` and write its reported growth.
**Result** 37.7

**Query** Read the entry `NC(=O)c1c(NC(=O)c2ccccc2C(F)(F)F)sc2c1CCC(=O)C2` and write its reported growth.
**Result** 8.24

**Query** Read the entry `COc1ccc(Cn2cc3c(c2-c2cc(OC)c(OC)c(OC)c2)CCc2c(CN4CCCC4)noc2-3)cc1` and write its reported growth.
**Result** 45.7

**Query** Read the entry `CC(C)(C)c1ccc(C(=O)Nc2sc3c(c2C(N)=O)CC/C(=N\O)C3)cc1` and write its reported growth.
**Result** 12.2

**Query** Read the entry `CS(=O)(=O)c1ccc(-c2nn(-c3ccccc3)cc2/C=N/NC(=O)c2nc(N)n[nH]2)cc1` and write its reported growth.
**Result** 93.7

**Query** Read the entry C=C1CC[C@@H]2[C@]3(C)COC(c4ccccc4)O[C@@H]3CC[C@@]2(C)[C@@H]1C/C=C1/C(=O)OC[C@H]1O (stereo partly specified) and write its reported growth.
**Result** 100

---

Test system: M14 melanoma
Assay: NCI-60 one-dose screen, 48 h
Details: 10 µM unless noted
Protocol: Growth inhibition of the M14 human tumor cell line is measured as a screen for anti-cancer activity. Cells are grown in 96 well plates and exposed to the test compound for 48 hours. Compounds are tested at a single concentration, which is 10^-5 M for most compounds. The reported endpoint is percent growth (GI% or GIPRCNT), where numbers from 0 - 100% represent growth inhibition, and numbers from -100% - 0 represent cell death. For example, a value of 40 represents 60% growth inhibition. […]
About 83,000 compounds went through this panel and 20% of them were active in at least one assay; those are over-represented in the sample as a whole. Calls of active or inactive are those of the source. How the source made its calls: active means growth percent below 10; inactive means the rest.
Write down the outcome that applies. Available outcomes: true (1) = active, false (0) = inactive

**Query** Short answer needed: outcome of this test for `Nc1nc(-c2cccc([N+](=O)[O-])c2)c(N=Nc2ccc(Br)cc2)s1` ?
**Result** true (1)

**Query** Short answer needed: outcome of this test for `CN1CCC(n2cc(Nc3ncc4c(=O)n(-c5c(Cl)cccc5Cl)cc(Br)c4n3)cn2)CC1` ?
**Result** false (0)

**Query** Short answer needed: outcome of this test for `Cc1ccc(-c2cc3nc(C(Cl)Cl)nc(C)n3n2)cc1` ?
**Result** false (0)

**Query** Short answer needed: outcome of this test for `Nc1nc(-c2cccc([N+](=O)[O-])c2)c(N=Nc2cccc([N+](=O)[O-])c2)s1` ?
**Result** false (0)

**Query** Short answer needed: outcome of this test for `CC(=O)Nc1cccc(Nc2nc(N[C@@H](C)c3ccccc3)c3ccccc3n2)c1` ?
**Result** true (1)

**Query** Short answer needed: outcome of this test for `O=C1[C@H]2Cc3c([nH]c4ccccc34)[C@@H](c3ccc(Br)cc3)N2C(=O)CN1C1CCN(CC2CCCCC2)CC1` ?
**Result** true (1)

**Query** Short answer needed: outcome of this test for O=C(c1ccc(Cl)cc1)C1[C@H](c2ccc(Cl)cc2)[C@@H](c2ccccc2)NC12C(=O)Nc1ccccc12 (stereo partly drawn) ?
**Result** false (0)

**Query** Short answer needed: outcome of this test for `COc1ccc(/C=C/C(=O)c2cccc(NC(=O)CSc3nc4ccccc4c(=O)n3-c3ccccc3)c2)cc1OC` ?
**Result** false (0)

---

Exercise: state measured growth for each of the compounds provided.
Test system: HT29 colon
Experiment: NCI-60 one-dose screen, 48 h (100 = growth as untreated, 0 = no growth, -100 = all killed)
Settings: 10 µM unless noted
About 83,000 compounds went through this panel and 20% of them were active in at least one assay; those are over-represented in the sample as a whole.
// return numeric value only (unit: %, not printed)

**Query** Read the entry `CS(=O)(=O)Nc1cc(-c2ccc3ncc(C#N)c(NCc4ccccc4F)c3c2)cnc1Cl` and write its reported growth.
**Result** 11

**Query** Read the entry `COc1cc(Cn2cc3c(c2)-c2onc(CN4CCCC4)c2CC3)cc(OC)c1OC` and write its reported growth.
**Result** 105

**Query** Read the entry `NC(N)=Nc1ccc(Oc2cccc(NC(N)=Nc3ccc(I)cc3F)c2)cc1` and write its reported growth.
**Result** 62.5

**Query** Read the entry `NC(=O)c1c(NC(=O)c2ccc(F)cc2F)sc2c1CCC(=O)C2` and write its reported growth.
**Result** 59.8

**Query** Read the entry `N=c1c2cc(-c3ccccc3)oc2ncn1/N=C/c1ccc(Br)cc1` and write its reported growth.
**Result** 102

**Query** Read the entry COc1c(N2CC3CCCNC3C2)c(F)cc2c(=O)c(C(=O)N/N=C/c3ccc(Br)cc3)cn(C3CC3)c12 (stereo unspecified) and write its reported growth.
**Result** 13.6

---

Tested on: MDA-MB-435 melanoma
Assay: NCI-60 one-dose screen, 48 h (100 = growth as untreated, 0 = no growth, -100 = all killed)
Conditions: 10 µM unless noted
This is part of a sample that, as a whole, favours compounds with a hit. Of some 83,000 tested, about 20% had one in any assay.
The threshold is inclusive: growth of exactly 50% counts as class 1; values below receive class 0.

**Query** Could you verify whether the entry `NS(=O)(=O)c1ccc(-n2cc(CN3CCCCC3)nn2)cc1` shows growth of no less than 50%?
**Result** class 1

**Query** Could you verify whether the entry `CS(=O)(=O)Nc1cc(-c2ccc3ncc(C#N)c(N[C@H](CO)c4ccccc4)c3c2)cnc1Cl` shows growth of no less than 50%?
**Result** class 0

**Query** Could you verify whether the entry `COc1ccc(NC2=C(Cl)C(=O)c3nc(C)ccc3C2=O)cc1OC` shows growth of no less than 50%?
**Result** class 0

**Query** Could you verify whether the entry `COCCNc1ccc2ncc(C#Cc3cncc(C(=O)Nc4ccc(CN5CCN(C)CC5)c(C(F)(F)F)c4)c3)n2n1` shows growth of no less than 50%?
**Result** class 0

**Query** Could you verify whether the entry `COc1cc(-c2nnc(SCc3ccc(O)c4ncccc34)n2-c2ccccc2)cc(OC)c1OC` shows growth of no less than 50%?
**Result** class 0

**Query** Could you verify whether the entry `O=C(Nc1ccc2c(ccn2Cc2ccccn2)c1)c1ccnnc1` shows growth of no less than 50%?
**Result** class 1

**Query** Could you verify whether the entry `C#Cc1nc(C(C)=O)cs1` shows growth of no less than 50%?
**Result** class 1

**Query** Could you verify whether the entry `CNC(=O)c1cc(Oc2ccc3nc(NC(=O)c4cccc(OC(F)(F)F)c4)sc3c2)ccn1` shows growth of no less than 50%?
**Result** class 1

**Query** Could you verify whether the entry `CN(C)CCNC(=O)c1ccc(-c2nc3ccc4[nH]ncc4c3c3c2COCC3)cc1` shows growth of no less than 50%?
**Result** class 0

**Query** Could you verify whether the entry `O=C(CSc1nnc(-c2ccc(Cl)cc2)n1-c1ccccc1)Nc1ccc(Br)cc1` shows growth of no less than 50%?
**Result** class 0

**Query** Could you verify whether the entry `Cn1ccnc1C(=O)/C=C/c1ccc(CNC(=O)c2ccc(S(F)(F)(F)(F)F)cc2)cc1` shows growth of no less than 50%?
**Result** class 1

All figures here come from PubChem BioAssay (NCI).
